Test system: NmuMG
experimentDescription: cells
Type: cell-based, mouse
conditionLabel: NmuMG mouse mammary normal epithelial control line; read-out: IC50, NmuMG
pIC50: −log10 of the molar value.
quantityName: pIC50

{"columns": ["compound", "pIC50"],
 "data": [
  ["CON(C1CCC2(C)C(CCC3C2CCC2(C)C(C4=CC(=O)OC4)CCC32O)C1)C1CC(O)C(O)C(CO)O1 [9α, 2-deoxy-D-galactoside]", "< 4.60"],
  ["CON([C@H]1CC[C@@]2(C)[C@H](CC[C@@H]3[C@@H]2CC[C@]2(C)[C@@H](C4=CC(=O)OC4)CC[C@]32O)C1)[C@@H]1O[C@H](CF)[C@@H](O)[C@H](O)[C@H]1O [13β, 6-deoxy-6-fluoro-D-glucoside]", "< 4.60"]
]}

Please look at the following compound next.
Reported pIC50 for CON([C@H]1CC[C@@]2(C)[C@H](CC[C@@H]3[C@@H]2CC[C@]2(C)[C@@H](C4=CC(=O)OC4)CC[C@]32O)C1)[C@@H]1O[C@H](CO)[C@@H](O)[C@H](O)[C@H]1O [4β, D-glucoside] was 5.51

* * *

Test system: NCI/ADR-RES
experimentDescription: cells
Type: cell-based, human
conditionLabel: NCI/ADR-RES cells; read-out: IC50, NCI/ADR-RES
quantityName: pIC50
Scale: negative log10 of molar concentration, which is what pIC50 denotes.

{"columns": ["compound", "pIC50"],
 "data": [
  ["CON([C@H]1CC[C@@]2(C)[C@H](CC[C@@H]3[C@@H]2CC[C@]2(C)[C@@H](C4=CC(=O)OC4)CC[C@]32O)C1)[C@H]1OC[C@H](O)[C@H](O)[C@@H]1O [5β, L-riboside]", 7.49],
  ["CON([C@H]1CC[C@@]2(C)[C@H](CC[C@@H]3[C@@H]2CC[C@]2(C)[C@@H](C4=CC(=O)OC4)CC[C@]32O)C1)[C@@H]1O[C@H](CO)[C@H](O)[C@@H](O)[C@@H]1O [29β, D-idoside]", 5.82]
]}

Please look at the following compound next.
Reported pIC50 for CON(C1CCC2(C)C(CCC3C2CCC2(C)C(C4=CC(=O)OC4)CCC32O)C1)C1OC(CO)C(O)C(O)C1O [42β, L-glucoside] was 6.26

* * *

Test system: NCI/ADR-RES
experimentDescription: cells
Type: cell-based, human
conditionLabel: NCI/ADR-RES cells; read-out: IC50, NCI/ADR-RES
pIC50: −log10 of the molar value.
Some compounds, each annotated with its measured pIC50.

These solved cases illustrate the format of a correct answer.
{"columns": ["compound", "observedMeasurement"],
 "data": [
  ["CON(C1CCC2(C)C(CCC3C2CCC2(C)C(C4=CC(=O)OC4)CCC32O)C1)C1OCC(O)C(O)C1O [15α, D-lyxoside]", "< 4.60"],
  ["CON(C1CCC2(C)C(CCC3C2CCC2(C)C(C4=CC(=O)OC4)CCC32O)C1)C1OCC(O)C(O)C1O [14α, L-lyxoside]", "< 4.60"]
]}

Please look at the following compound next.
Reported pIC50 for CON(C1CCC2(C)C(CCC3C2CCC2(C)C(C4=CC(=O)OC4)CCC32O)C1)C1OC(CO)C(O)CC1O [10α, 3-deoxy-D-glucoside] was < 4.60
